Target: Adenosine receptor A2a (Homo sapiens, UniProt P29274)
Sequence (P29274 whole entry): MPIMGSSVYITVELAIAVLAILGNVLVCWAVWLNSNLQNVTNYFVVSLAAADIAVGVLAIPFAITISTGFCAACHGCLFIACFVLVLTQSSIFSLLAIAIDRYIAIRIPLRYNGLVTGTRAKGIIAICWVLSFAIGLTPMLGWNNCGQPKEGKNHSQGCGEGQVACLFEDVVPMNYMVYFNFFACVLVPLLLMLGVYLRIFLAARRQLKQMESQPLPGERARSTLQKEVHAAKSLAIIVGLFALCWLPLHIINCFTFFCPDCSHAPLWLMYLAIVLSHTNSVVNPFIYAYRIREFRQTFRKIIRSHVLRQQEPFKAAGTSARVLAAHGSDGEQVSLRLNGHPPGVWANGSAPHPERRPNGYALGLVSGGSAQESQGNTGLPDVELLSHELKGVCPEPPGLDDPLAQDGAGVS
Assay: Displacement of [3H]SCH-58261 from human recombinant adenosine A2A receptor expressed in HEK293 cells
reported.metric: log10(Ki) (log10 of the value in nM)
Hello, just confirming the data are log10 of Ki with units of nM.

Study these solved cases before continuing.
CC(=O)NCCNc1nc(-c2ccco2)c(C(=O)c2ccccc2)s1
2.45
COC(C)CNc1nc(-c2ccco2)c(C(=O)c2ccccc2)s1 (centres undefined)
2.19

Give the measured log10(Ki) of O=C(c1ccccc1)c1sc(NCc2ccc(F)c(F)c2)nc1-c1ccco1 . 1.81

Give the measured log10(Ki) of O=C(c1ccccc1)c1sc(NCCCc2ccccc2)nc1-c1ccco1 . 2.02

Give the measured log10(Ki) of O=C(c1ccccc1)c1sc(NCc2cccs2)nc1-c1ccco1 . 1.73

Give the measured log10(Ki) of CC(=O)N1CCC(Nc2nc(-c3ccco3)c(C(=O)c3ccccc3)s2)CC1 . 2.66

Give the measured log10(Ki) of O=C(c1ccccc1)c1sc(NC2CCN(C(=O)c3ccccc3F)CC2)nc1-c1ccco1 . 2.02

Give the measured log10(Ki) of CC(C)CNc1nc(-c2ccco2)c(C(=O)c2ccccc2)s1 . 1.95
